SYSTEM_NAME: T1, nAra h 2 (peanut, UniProt Q6PSU2 22-172)
T1 construct: Bought natural allergen; also called naturally extracted Ara h 2
T1 sequence (looked up): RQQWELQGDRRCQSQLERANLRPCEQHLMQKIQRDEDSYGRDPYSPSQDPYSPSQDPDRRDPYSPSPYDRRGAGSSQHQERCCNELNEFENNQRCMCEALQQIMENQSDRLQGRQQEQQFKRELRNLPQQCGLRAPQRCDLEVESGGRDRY
TEST_SUMMARY: ELISA, antigen-coated plate
// NB: equality with 7 ng/mL counts as Criterion not met; only EC50 strictly below is Criterion met

BINDER: h4B2 (antibody, V domains shown, Recombinant human IgG; also called hMAb 4B2) VH: QVQLQEAGPRLVKPSQTLSVTCTVSGASITIGGYYWSWIRQHPGKGLEWMGYIYSNGRTYYNPSLKSRIAMSIDTSKNQFSLKLTSVTAADTAIYFCAREAWETPLWGQGTLITVSS VL: DIQMTQSPSSLSASVGDRVTITCQANQDIVNSLNWFQHKPGTAPKVLIYDASKLETGVPSRFSGSGSGTHFTFTISGLQPEDFATYFCQQYENLPHTFGQGTKLEIR
LABEL_CLASS: Criterion met

BINDER: hm4B2 (antibody, V domains shown, also called 4B2 with mouse Fc; hmMAb 4B2) VH: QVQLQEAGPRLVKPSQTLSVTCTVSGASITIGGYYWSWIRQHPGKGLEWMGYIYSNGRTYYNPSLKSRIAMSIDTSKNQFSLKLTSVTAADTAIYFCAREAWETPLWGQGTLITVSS VL: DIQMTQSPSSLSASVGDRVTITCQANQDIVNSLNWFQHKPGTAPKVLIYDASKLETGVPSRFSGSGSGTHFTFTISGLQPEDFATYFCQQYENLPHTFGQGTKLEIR
LABEL_CLASS: Criterion not met

BINDER: hm37D5 (antibody, V domains shown, also called 37D5 with mouse Fc; hmMAb 37D5) VH: EEQLVESGGRLLRPGESLSLSCAAVGFNFGDFGMAWVRQPPGKGLEWVAGINWSGHSTGFVDSMKGRLTISRDSAKSSLFLQMNSLRGEDTAVYYCARVGRLCSGDICDSMGAFDLWGQGTMVTVSS VL: DIQMTQSPSTLSASIGDRVTITCRASQTIDNWLAWYQQRPGKAPKLLIYQASSLQSGVSSRFRGSGSGTEFTLTITSLQPDDFATYYCQKSNGYSRTFGQGTKVEIK
LABEL_CLASS: Criterion met

BINDER: hm12G10 (antibody, V domains shown, also called 12G10 with mouse Fc; hmMAb 12G10) VH: EVQLLESGGRLLRPGGSLSLSCVASGFYFGDFGMSWVRQVPGKGLEWVSGIDWSGRSTGYVDSMKGRLTISRDNDKSSLYLQMNDLRGEDTAVYYCARVGRLCSGDSCDSMGAFDLWGQGTMVTVSS VL: DIQLTQSPSTLSASIGDSVTITCRASQNIDNWLAWYQQKPGKAPRLLIYKASSLGSGVSSKFRGSGFGTEFTLTITSLQPDDFATYYCQKSNGYSRTFGQGTKVDIK
LABEL_CLASS: Criterion met

BINDER: h2F8 (antibody, V domains shown, Recombinant human IgG; also called hMAb 2F8) VH: EVQLVESGGGLVKPGGSLRLSCAASGFIFSDYNMNWVRQAPGKGLEWVSSITRSSRTIYYADSVKGRFTISRDNAKNSLHLQMNSLRDADTAVYYCAREDFDVSTGPYYMDVWGNGTTVIVSS VL: EIVLTQSPGTLSLSPGERATLSCRASQSVSNMFLVWYQQKPGQAPRLLMYGASTRATDIPDRFSGSGSGTDFTLTISRLEPEDFAVYYCQQNGNSPYTFGQGTKLEIK
LABEL_CLASS: Criterion met

BINDER: h37D5 (antibody, V domains shown, Recombinant human IgG; also called hMAb 37D5) VH: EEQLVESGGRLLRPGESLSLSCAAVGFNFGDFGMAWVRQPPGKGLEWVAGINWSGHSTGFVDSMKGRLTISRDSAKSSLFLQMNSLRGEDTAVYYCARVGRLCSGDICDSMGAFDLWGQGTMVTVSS VL: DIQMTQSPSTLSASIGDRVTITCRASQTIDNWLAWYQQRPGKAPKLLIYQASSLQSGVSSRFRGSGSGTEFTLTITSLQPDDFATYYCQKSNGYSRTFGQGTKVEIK
LABEL_CLASS: Criterion met

BINDER: hm2F8 (antibody, V domains shown, also called 2F8 with mouse Fc; hmMAb 2F8) VH: EVQLVESGGGLVKPGGSLRLSCAASGFIFSDYNMNWVRQAPGKGLEWVSSITRSSRTIYYADSVKGRFTISRDNAKNSLHLQMNSLRDADTAVYYCAREDFDVSTGPYYMDVWGNGTTVIVSS VL: EIVLTQSPGTLSLSPGERATLSCRASQSVSNMFLVWYQQKPGQAPRLLMYGASTRATDIPDRFSGSGSGTDFTLTISRLEPEDFAVYYCQQNGNSPYTFGQGTKLEIK
LABEL_CLASS: Criterion not met

BINDER: h32B10 (antibody, V domains shown, Recombinant human IgG; also called hMAb 32B10) VH: QVQLVQSGAEVKKPGASVKVSCRASGYIFRNFDINWVRQATGQGLEWMGWMSPKSGDTGYAQKFQGRVTMTRDTSINTAYMELSSLTSEDSAVYYCARGVDGTNWGQGTRVTVSS VL: DIVMTQSPDSLGVSLGERATISCKSSQSILDNSNNKNFIAWFQQKPGQPPKLLIYWASARESGVPDRFSGSGSGTEFTLTINSLQAEDVAVYYCYQYYSTPHTFGQGTKLDLR
LABEL_CLASS: Criterion not met

BINDER: hm32B10 (antibody, V domains shown, also called 32B10 with mouse Fc; hmMAb 32B10) VH: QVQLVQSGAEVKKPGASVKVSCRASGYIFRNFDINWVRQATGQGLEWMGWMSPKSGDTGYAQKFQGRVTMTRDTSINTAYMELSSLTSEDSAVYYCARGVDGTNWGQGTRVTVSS VL: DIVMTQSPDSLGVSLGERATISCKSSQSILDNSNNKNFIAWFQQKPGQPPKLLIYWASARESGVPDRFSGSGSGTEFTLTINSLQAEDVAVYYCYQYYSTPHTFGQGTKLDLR
LABEL_CLASS: Criterion not met

BINDER: h7G6 (antibody, V domains shown, Recombinant human IgG; also called hMAb 7G6) VH: QVQLVESGGGVVQPGRSLRLSCAASGIAFNDYTMHWVRRSPDKGLEWVAAISYGGTNKYYADSVKGRFTISRDSSKNTLFLQMDSLRVEDTAVYYCARDSGYRSLLHWGQGTLVTVSS VL: EIVLTQSPLSLPVTPGEPASISCRSSQSLVHRNGYNYLDWYLQKPGQSPQLLIYMASKRASGVPDRFSGSGSGTEFTLKISRVEAEDVGIYYCMQALQTWTFGQGTKVEVN
LABEL_CLASS: Criterion met
